B1: tRNA (parent)
chain: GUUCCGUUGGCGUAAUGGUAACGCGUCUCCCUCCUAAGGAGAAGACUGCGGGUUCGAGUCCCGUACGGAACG

Variants of: B1
Test Method Notes: yeast fitness, log relative to wild type (ln ratio); higher = fitter; tRNA-Arg(CCU), competitive growth, 37 C, 1 M NaCl
Measure: yeast fitness (ln)
# print the numeric value only

These recorded examples may help you get a feel for the data.
Sequence Record	yeast fitness (ln)
GCUCCAUUGGCGUAAUGGUAACGCGUUUCCCUCCUAAGGAGAAGACUGCGGGUUCGAGUCCCGUAAGGAUUG	-0.269
GUUCCUUUGGCGUAAUGGUAACGCGUCUCCCUCCUAAGGAGAAGAUUGCGGGUUCGAGUCCCGUAAGGAGCG	-0.00887
GUUCCUUUGGCGUAAUGGUAACGCGUUUCCCUCCUAAGGAGACGACUGCGGGUUCGAGUCCCGUAUGGAGCG	-0.407
ACUCCUUUGGCGUAAUGGUAACGCGUUUCCCUCCUAAGGAGACGACUGCGGGUUCGAGUCCCGUACGGAUUG	-0.294

## Task Form field: reported yeast fitness (ln) of GGUCCGUUGGCGUAAUGGUAACGCGUUUCCCUCCUAAGGAGACGACUGCGGGUUCGAGUCCCGUAUGGGUCG
## Result -0.346

## Task Form field: reported yeast fitness (ln) of GGUCCGUUGGCGUAAUGGUAACGCGUUUCCCUCCUAAGGAGACGACUGCGGGUUCGAGUCCCGUAAGGAAUG
## Result -0.238

## Task Form field: reported yeast fitness (ln) of GUUCCGUUGGCGUAAUGGUAACGCGUCUCCCUCCUAAGGAGAAGAUUGCGGGUUCGAGUCCCGUACGGGGUG
## Result -0.237
